Collected IC50, phosphorylation by IKKβ values appear next to each entry.
biological target: ΔCTD_Reg1 (human Regnase-1 amino acids 1 to 546, FLAG tag on the N-terminal side, BirA recognition sequence … (human)); assay: cell-based or functional assay
Sequence (Q5D1E8 1-546, stated change not applied): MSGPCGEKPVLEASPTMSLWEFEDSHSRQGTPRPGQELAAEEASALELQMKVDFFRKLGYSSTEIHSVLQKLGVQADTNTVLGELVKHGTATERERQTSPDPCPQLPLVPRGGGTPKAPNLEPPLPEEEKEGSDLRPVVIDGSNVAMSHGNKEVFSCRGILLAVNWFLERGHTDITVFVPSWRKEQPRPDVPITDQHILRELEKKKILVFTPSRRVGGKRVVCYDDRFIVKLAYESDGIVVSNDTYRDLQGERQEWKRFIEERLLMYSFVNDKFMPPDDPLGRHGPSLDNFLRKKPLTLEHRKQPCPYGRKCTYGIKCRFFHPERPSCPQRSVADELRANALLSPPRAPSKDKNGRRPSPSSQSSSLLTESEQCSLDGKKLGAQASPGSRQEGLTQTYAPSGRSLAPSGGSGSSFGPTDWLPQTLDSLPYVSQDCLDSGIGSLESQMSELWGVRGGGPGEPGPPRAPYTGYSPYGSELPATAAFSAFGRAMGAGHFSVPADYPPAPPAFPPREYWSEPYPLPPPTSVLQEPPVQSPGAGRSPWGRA
Positions of bridges follow the written chain, without caps; N, C: chain ends. Non-standard residues stand in square brackets, D forms with d. No end group written: not given here. NMeA = CN[C@@H](C)C(=O)O; dNMeA = CN[C@H](C)C(=O)O
Note: unit µM is implicit; provide only the numeric part.

Below: 3 binders and their reported IC50, phosphorylation by IKKβ.
{"columns": ["Binder", "IC50, phosphorylation by IKKβ, µM"],
 "data": [
  ["[dNMeA]PNSSWFKIWD (lactam N-11) [PP6]", 20.3],
  ["[NMeA]HSNAWYNIWD (lactam N-11) [PP5]", 20.4],
  ["[NMeA]GYANSWYNIWD (lactam N-12) [PP2]", 14]
]}

# input Find the recorded IC50, phosphorylation by IKKβ belonging to [dNMeA]KHASAWYRIWD (lactam N-12) [PP3] and report it.
# output 8.3

# input Which IC50, phosphorylation by IKKβ is reported for this binder? [NMeA]YIWDFFGDLD (lactam N-11) [PP4]
# output 8.3

The reported numbers originate from patent US20220125891A1.
